# experiment: Drug distribution in Sprague-Dawley rat Soleus muscle to blood ratio at 100 mg/kg, po by HPLC analysis
# Format: ADME, organism-based
measurement_label: Kp

Use the examples below as a reference point.
chemical_structure: NC(=O)c1ccn(-c2cnc(NC[C@]3(c4ncccc4F)C[C@H](F)C3)nc2)c1
measurement_label: Kp
endpoint_value: 0.77

chemical_structure: CNC(=O)c1cccc(-c2cnc(NC[C@]3(c4ncccc4F)C[C@H](F)C3)nc2)c1
measurement_label: Kp
endpoint_value: 0.53

chemical_structure: NC(=O)c1cccc(-c2cnc(NC[C@]3(c4ncccc4F)C[C@H](F)C3)nc2)c1
measurement_label: Kp
endpoint_value: 1.16

# context switch: different molecule, same Kp
Consider the molecule "C#Cc1cnc2nc(O)n(C(CC)CC)c2n1" and give its measured Kp.
0.3

----------
# experiment: Metabolic stability in male rat liver microsomes assessed as intrinsic clearance measured after 90 mins by HPLC/MS/MS analysis
# Format: ADME, Microsome
# test_context: read-out: CLH
measurement_label: CLint scaled (mL/min/kg)
Answers are plain numbers, in mL/min/kg.

Use the examples below as a reference point.
chemical_structure: CNC(=O)c1cccc(-c2cnc(NC[C@]3(c4ncccc4F)C[C@H](F)C3)nc2)c1
quantity_unit: mL/min/kg
CLint scaled: 14
--
chemical_structure: NC(=O)c1cnn(-c2ccc(NCC3(c4ncccc4F)CCC3)nn2)c1
quantity_unit: mL/min/kg
CLint scaled: 30
--
chemical_structure: NC(=O)c1cnn(-c2ccc(NC[C@]3(c4ncccc4F)C[C@H](F)C3)nn2)c1
quantity_unit: mL/min/kg
CLint scaled: 30
--
chemical_structure: NC(=O)c1ccn(-c2cnc(NC[C@]3(c4ncccc4F)C[C@H](F)C3)nc2)c1
quantity_unit: mL/min/kg
CLint scaled: 15
--
chemical_structure: NC(=O)c1cccc(-c2cnc(NC[C@]3(c4ncccc4F)C[C@H](F)C3)nc2)c1
quantity_unit: mL/min/kg
CLint scaled: 38

# context switch: different compound, same CLint scaled
Consider the compound "NC(=O)c1ccn(-c2ccc(NCC3(c4ncccc4F)CCC3)nn2)c1" and give its measured CLint scaled.
26

----------
# Tested on: Psoas muscle
# experiment: Activation of fast twitch skeletal muscle in rabbit psoas muscle myofibrils by measuring increase in myofibril ATPase activity at 25% calcium concentration
# Type: functional
# test_context: Oryctolagus cuniculus
Assign EC40 to each entry below.

Use the examples below as a reference point.
chemical_structure: CC(C)(CNc1cnc(-c2cccc(C(N)=O)c2)cn1)c1ccc(F)cc1
EC40: 0.8 µM

chemical_structure: CC(C)(CNc1nc(-c2ccc(C(N)=O)cc2)ns1)c1ccc(F)cc1
EC40: 0.5 µM

# return EC40 for each item in the list
1. CN(CC1(c2ccccn2)CCC1)c1ccc(-c2cccc(C(N)=O)c2)nn1
2. NC(=O)c1ccn(-c2ccc(NCC3(c4ncccc4F)CCC3)nn2)n1
3. CC(C)(CNc1nc(-c2ccccc2)ns1)c1ccc(F)cc1

1. > 49 µM
2. 22.7 µM
3. 8.9 µM

----------
# experiment: Metabolic stability in human liver microsomes assessed as intrinsic clearance measured after 90 mins by HPLC/MS/MS analysis
# Type: ADME, Microsome
# test_context: read-out: CLH
measurement_label: CLint scaled (mL/min/kg)
One number for each entry, in mL/min/kg.

chemical_structure: NC(=O)c1cccc(-c2ccc(NCC3(c4ncccc4F)CCC3)nn2)c1
quantity_unit: mL/min/kg
endpoint_value: 11
//
chemical_structure: CC(C)(CNc1ncc(-c2cccc(C(N)=O)c2)cn1)c1ccc(F)cc1
quantity_unit: mL/min/kg
endpoint_value: 6
//
chemical_structure: NC(=O)c1cccc(-c2ccc(NCC3(c4ccc(F)cc4)CCC3)nn2)c1
quantity_unit: mL/min/kg
endpoint_value: 15

# return CLint scaled for each item in the list
1. CC(C)(CNc1nc(-c2cccc(C(N)=O)c2)ns1)c1ccc(F)cc1
2. CC(C)(CNc1ncns1)c1ccc(F)cc1

1. 11
2. 30
